Target Of Assay: Peptidyl-prolyl cis-trans isomerase NIMA-interacting 1 (Homo sapiens)
Assay Summary: qHTS Validation Assay to Find Inhibitors of Pin1 (AID 504536)
Conditions: Pin1 fluorescence polarization peptide binding assay; series mostly up to 57.5 µM
Inconclusive results are not listed. Active and inactive are the calls of the source. The call rests on the fitted dose curve; in most records, active means well fitted inhibition curve with a large enough effect in the polarisation, with a control signal flat (not every such curve was filed as active); inconclusive means small, poorly fitted or top-dose-only effect, or effect the other way; inactive means flat fitted curve, though single readings scatter; the % refers to the polarisation.
Your response should consist of one outcome taken from Y (active), N (inactive)

# fetch the recorded call for NCCS(=O)O here N

Input CCCCCCCCCCCCCCC[C@H](O)[C@H](N)CO N

Entry COc1cc(N)c(Cl)cc1C(=O)OCCN1CCCCC1 please N

One more compound: c1ccc(C(NCc2cccnc2)(c2ccccc2)c2ccccc2)cc1 N

Another compound to look at: O=c1ccn([C@@H]2O[C@H](COP(=O)(O)OP(=O)(O)O)[C@@H](O)[C@H]2O)c(=O)[nH]1 N

Queued: Clc1nccc2c1ccc1ccccc12 N

Try the compound N[C@@H](CS(=O)O)C(=O)O N

Continue with CC(C)NC[C@H](O)COc1ccc(CC(N)=O)cc1 N

Same for C[C@](Cc1ccc(O)c(O)c1)(NN)C(=O)O N

Lookup OC[C@H]1NC[C@@H](O)[C@@H]1O N

Repeat for the following compound: CN(C)CCCc1cc(C(=O)Nc2ccc(-c3ccncc3)cc2)ccc1O N

For CC1CCN(CC[C@H]2CCCN2S(=O)(=O)c2cccc(O)c2)CC1 then? N

Same read-out for COc1ccc(NC(=O)c2ccc(-c3ccc(-c4noc(C)n4)cc3C)cc2)cc1N1CCN(C)CC1 ? N

Follow-up entry: COc1ccccc1N1CCN(CCCCN2C(=O)c3ccccc3C2=O)CC1 N

Input CCOC(=O)C12CC1/C(=N/O)c1ccccc1O2 (stereo unspecified) N

Here is the next compound: N=S(=O)(O)Cc1noc2ccccc12 N

Also O=C(O)c1ccccc1Nc1cccc(OCc2ccc3ccccc3n2)c1 , if possible. N

Also need C[N+](C)(C)CC=O , thanks. N

Can you check O=C(O)/C=C/c1cnc[nH]1 next? N

Next up: CCCn1c(=O)c(C)cn2nc(N)nc12 N

And then NC(C(=O)N[C@@H]1C(=O)N2C(C(=O)O)=C(Cl)CS[C@H]12)c1ccccc1 (stereo partly specified) , what is it? N

Same question, NC(=O)CNCCC(c1ccccc1)c1ccccc1 this time N

Try this compound too: N#CC(C#N)=C(N)/C(C#N)=C/c1ccc(O)cc1 N

And for CN[C@H](CC(=O)O)C(=O)O ? N

Same thing, different compound: OC1(c2ccc(Cl)cc2)CCN(Cc2c[nH]c3ccccc23)CC1 N

What about Cc1cc(Cn2cnc3c2C[C@@H](C(=O)O)N(C(=O)C(c2ccccc2)c2ccccc2)C3)ccc1N ? N

Now this one: O=c1[nH]c2cc(Cl)ccc2c(O)c1-c1ccc(Oc2ccccc2)cc1 N

Also need OC[C@H]1O[C@@H](n2cnc3cncnc32)[C@H](O)[C@@H]1O , thanks. N

How about [N-]=[N+]=Nc1ccc(C(=O)CSC[C@H](NC(=O)CC[C@H](N)C(=O)O)C(=O)NCC(=O)O)cc1 ? Y

Another compound to look at: C[C@@]1(C2CCCC2)Cc2cc(OCC(=O)O)c(Cl)c(Cl)c2C1=O N

Follow-up entry: Nc1ccc(-c2nc3ccc(-c4nc5ccc(N)cc5[nH]4)cc3[nH]2)cc1 N

Can you handle C=C1C(=O)O[C@@H]2[C@H]3O[C@]3(C)CCC=C(C)CC[C@@H]12 next? N

Similarly, Nc1nc2c(cnn2CCc2ccccc2)c2nc(-c3ccco3)nn12 ? N

Entry to check: c1ccc(C(NCCNC(c2ccccc2)c2ccccc2)c2ccccc2)cc1 N

And CNc1cc(NS(=O)(=O)c2ccc(N)cc2)nc(NC)n1 ? N

Param item: COc1cc(CNC(=O)CCCCCCC(C)C)ccc1O N

Please give the result for CC(C)[C@@H]1CC[C@@H](C)C[C@@H]1P(=O)(c1ccccc1)c1ccccc1 too. N

Please do the same for NC(Cc1cccc(-c2ccccc2CP(=O)(O)O)c1)C(=O)O (stereo unspecified) as well. N

CC(=O)O[C@H]1CC2(C)[C@@H](C[C@@H](O)[C@H]3[C@@]4(C)CC[C@@H](O)[C@@H](C)[C@@H]4CC[C@@]32C)C1=C(CCC=C(C)C)C(=O)O (stereo partly specified) ? N

One more compound: O=C1OC(=O)C2C3CCC(O3)C12 (stereo unspecified) N

Further, for O=C(O)C1=CC(=C(c2ccc(O)c(C(=O)O)c2)c2ccc(O)c(C(=O)O)c2)C=CC1=O ? Y

Also check O=[N+]([O-])c1cccc2cn[nH]c12 N

Now consider CN1Cc2sccc2C(c2ccc(O)c(O)c2)C1 (stereo unspecified) and answer again. N

CCCCCCCCCCCCCCCCCCOC[C@H](COP(=O)([O-])OCC[N+](C)(C)C)OC ? N

Field entry: Brc1c(Br)c(Br)c2[nH]cnc2c1Br N

Repeat for the following compound: CC(C)NC[C@H](O)COc1cccc2ccccc12 N

====

Target Of Assay: N-terminal Xaa-Pro-Lys N-methyltransferase 1 (Homo sapiens)
Assay Summary: qHTS Assay for Inhibitors of N-terminal methyltransferase 1 (NTMT1): LOPAC validation of the NTMT1 SAHH-coupled ThioGlo3 Assay (AID 1347143);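 further: SAH from peptide methylation measured as thiol fluorescence via SAHH coupling and ThioGlo3; nearly all actives have a fitted effect of over 70% in size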
Conditions: recombinant NTMT1, SAHH-coupled ThioGlo3 fluorescence; series mostly up to 114 µM
Records with an inconclusive call do not appear. The source made the active and inactive calls. Calls follow the shape of the dose curve; as a rule, active = well fitted inhibition curve with a large enough effect; inconclusive = small, poorly fitted or top-dose-only effect; inactive = no such curve, though single readings can be large or run the other way.
Hi! Could you answer with just one of these? YES (active), NO (inactive)

Field: outcome | Entry: CN1Cc2sccc2C(c2ccc(O)c(O)c2)C1 (stereo not given) YES

Subsequent entry: Cc1nc2n(c(=O)c1CCN1CCC(c3noc4cc(F)ccc34)CC1)CCCC2O (stereo not given) NO

Another molecule to check: NC(=O)c1ccccc1 NO

Follow-up entry: NC(Cc1cccc(-c2ccccc2CP(=O)(O)O)c1)C(=O)O (stereo not given) NO

Same thing, different molecule: COC1(C2=NCCN2)COc2ccccc2O1 (stereo not given) NO

Similarly, C=CCN1CCc2c(cc(O)c(O)c2Br)[C@@H](c2ccccc2)C1 ? YES

Likewise for CC(/C=C/c1cccc(Oc2ccc(F)cc2)c1)N(O)C(N)=O (stereo not given) ? NO

Here is the next molecule: O=C(c1ccc2c(c1)OCCO2)N1CCCCC1 NO

How about CCCCOc1cc(CC2CNC(=O)N2)ccc1OC (stereo not given) ? NO

Then CC(=O)C(C)=O ? NO

Then Cc1cc(Cn2cnc3c2C[C@@H](C(=O)O)N(C(=O)C(c2ccccc2)c2ccccc2)C3)ccc1N ? NO

Please give the result for N[C@@H](Cc1c[nH]c2ccccc12)C(=O)O too. NO

Okay, and COc1ccc(NC(=O)c2ccc(-c3ccc(-c4noc(C)n4)cc3C)cc2)cc1N1CCN(C)CC1 ? NO

Next molecule up: O=C(O)c1cc(=O)cc(C(=O)O)[nH]1 NO

# repeat for Cn1c(=O)c2[nH]c(-c3ccc(S(=O)(=O)O)cc3)nc2n(C)c1=O YES

Repeat for the following molecule: OC[C@H]1NC[C@@H](O)[C@@H]1O NO

// next record CN1CC(O)C(O)C(O)C1CO (stereo not given) NO

What do you get for COc1ccc2c(c1)CCC1C2CC[C@@]2(C)C1CC[C@@H]2NCCCCCCN1C(=O)C=CC1=O (stereo not given in full) ? NO

// next record CC(C)[C@@H]1CC[C@@H](C)C[C@@H]1P(=O)(c1ccccc1)c1ccccc1 NO

Field entry: NC(N)=[N+]1CCc2ccccc2C1 NO

And the next one, NCCCCN ? NO

Next entry: CC[N+](CC)(CC)CC(=O)Nc1c(C)cccc1C NO

Same question, CCCOC(=O)c1c(-c2ccccc2)nc(CC)c(C(=O)SCC)c1CCC this time NO

How about COc1ccc(-c2ccc(N)[n+](CCCC(=O)O)n2)cc1 ? NO

Consider next the molecule N[C@H](C(=O)O)[C@H]1C[C@@H]1C(=O)O in the same way. NO

====

Assay Summary: qHTS for differential inhibitors of proliferation of Plasmodium falciparum line Dd2 (AID 1882); further: nearly all actives have a fitted effect of over 65% in size
Conditions: Plasmodium falciparum Dd2 proliferation inhibition; series mostly up to 28.7 µM
Records with an inconclusive call do not appear. Active and inactive are the calls of the source. Calls come from the whole dose curve; as a rule, active = well fitted inhibition curve with a large enough effect; inconclusive = small, poorly fitted or top-dose-only effect; inactive = flat fitted curve, though single readings scatter.
Return exactly one item of active, inactive

Call for entry C=CC[C@H](N)C(=O)O : inactive

Quick one: COC(=O)C(C)(N)Cc1ccc(O)cc1 (centres undefined) inactive

Also need CC(=O)[C@H]1CCC2C3CC=C4C[C@@H](OS(=O)(=O)O)CC[C@]4(C)C3CC[C@@]21C (some centres undefined) , thanks. inactive

What about this compound? Nc1ccc(CCNc2ncnc3c2ncn3C2OC(CO)C(O)C2O)cc1 (centres undefined) inactive

Same lookup for NCCCCN=C(N)N , please. inactive

What do we get for Cc1ccc([N+](=O)[O-])cc1S(=O)(=O)N(C)C ? inactive

Another compound to look at: O=c1onc2n1-c1cc(Br)ccc1OC2 inactive

Same question for CNCCNS(=O)(=O)c1cccc2cnccc12 please. inactive

Another compound to check: N[C@@H](CCCC(=O)O)C(=O)O inactive

Note, next up: Cc1nc(N=Nc2cc(S(=O)(=O)O)c3cc([N+](=O)[O-])cc(S(=O)(=O)O)c3c2)c(COP(=O)(O)O)c(C=O)c1O inactive

Another compound: NCCCCN inactive

Param item: CC(=O)NCCc1c[nH]c2ccc(O)cc12 inactive

# repeat for CC#CCOC(=O)c1c(C)nc2sc3c(c2c1N)CCC(O)C3 (centres undefined) inactive

Same again, this time with CCCCCCN(CCCCCC)C(=O)Cc1c(-c2ccc(F)cc2)[nH]c2ccccc12 active

Same question for CN1CCN(c2nc3cc(C(F)(F)F)ccc3n3cccc23)CC1 please. active

Next compound: O=C(O)C1=CCCNC1 inactive

Same lookup for O=C(O)c1cccnc1C(=O)O , please. inactive

What do you get for Oc1cc2c(cc1O)C(c1ccccc1)CNCC2 (centres undefined) ? inactive

What do we get for CC(C)C[C@H](NC(=O)C1OC1C(=O)O)C(=O)NCCCCN=C(N)N (some centres undefined) ? active
